Provenance of the data: patent US20170306005A1

Assign % inhibition of FRET signal to each entry below.
# TARGET_OF_ASSAY: T1, human tenascin-C rCd4-His-FBG (rat; human, UniProt P05540 207-392, limits assumed)
# T1 construct: domain: domains 3 and 4; C-terminal FBG fusion; biotinylated in the ELISA and HTRF screens; also called Hu TNC; human TNC rCd4-His-FBG; not shown: 6His tag
# T1 sequence (chain (part 1 of 2)): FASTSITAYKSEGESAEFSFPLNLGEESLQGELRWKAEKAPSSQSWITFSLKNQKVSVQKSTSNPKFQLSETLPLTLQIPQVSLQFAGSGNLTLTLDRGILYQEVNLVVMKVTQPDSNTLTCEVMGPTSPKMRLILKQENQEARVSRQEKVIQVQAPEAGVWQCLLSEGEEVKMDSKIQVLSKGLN
# T1 sequence (chain (part 2 of 2)): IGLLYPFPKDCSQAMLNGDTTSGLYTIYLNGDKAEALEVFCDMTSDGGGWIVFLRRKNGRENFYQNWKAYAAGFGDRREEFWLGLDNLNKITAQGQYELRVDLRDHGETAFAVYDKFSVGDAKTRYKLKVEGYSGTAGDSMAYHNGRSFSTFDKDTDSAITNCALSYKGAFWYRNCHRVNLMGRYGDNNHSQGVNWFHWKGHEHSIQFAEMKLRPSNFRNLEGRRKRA
# TEST_PROTOCOL: HTRF competition; competitor d2-labelled B12 IgG

The examples below pair each entry with its known result.
>  <BINDER>
161_01_F6 scFv (scFv, V domains shown, not shown: small tags and cut ends, E. coli supernatant scFv; also called 160_01_F6) VH: EVRLVQSGAEVKKPGASVKVSCKVSGYTLTELSMHWVRQAPGKGLEWMGGFDPEDGETIYAQKFQGRVTMTEDTSTDTAYMELSSLRSEDTAVYYCATAQKENIANRHWGQGTLVTVSS VL: DIQMTQSPASLPTSVGDRVTITCRASQYIQGFLNWYQQKPGKAPRLLIYAASTLQDGVPSRFSGSGYGTDFTLTISSLQPEDFATYYCQQSYSTPWTFGQGTKVEIK

>  <% inhibition of FRET signal>
≥ 90%

$$$$
>  <BINDER>
162_02_H5 scFv (scFv, V domains shown, not shown: small tags and cut ends, E. coli supernatant scFv) VH: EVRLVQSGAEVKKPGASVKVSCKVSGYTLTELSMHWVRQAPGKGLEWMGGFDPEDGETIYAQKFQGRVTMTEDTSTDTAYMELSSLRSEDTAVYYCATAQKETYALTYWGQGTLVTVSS VL: DIQMTQSPASLPTSVGDRVTITCRASQYIQGFLNWYQQKPGKAPRLLIYAASTLQDGVPSRFSGSGYGTDFTLTISSLQPEDFATYYCQNQYTGPWTFGQGTKVEIK

>  <% inhibition of FRET signal>
≥ 83%

$$$$
>  <BINDER>
162_02_F4 scFv (scFv, V domains shown, not shown: small tags and cut ends, E. coli supernatant scFv) VH: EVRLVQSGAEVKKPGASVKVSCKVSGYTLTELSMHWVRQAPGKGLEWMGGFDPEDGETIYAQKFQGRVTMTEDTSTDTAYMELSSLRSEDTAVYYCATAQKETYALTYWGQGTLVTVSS VL: DIQMTQSPASLPTSVGDRVTITCRASQYIQGFLNWYQQKPGKAPRLLIYAASTLQDGVPSRFSGSGYGTDFTLTISSLQPEDFATYYCMHHYRSPWTFGQGTKVEIK

>  <% inhibition of FRET signal>
≥ 83%

$$$$

Record % inhibition of FRET signal per entry; entries follow.
1. 162_02_F3 scFv (scFv, V domains shown, not shown: small tags and cut ends, E. coli supernatant scFv) VH: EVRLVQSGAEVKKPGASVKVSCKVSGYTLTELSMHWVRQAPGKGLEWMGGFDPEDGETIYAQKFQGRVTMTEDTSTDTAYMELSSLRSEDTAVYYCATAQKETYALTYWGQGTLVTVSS VL: DIQMTQSPASLPTSVGDRVTITCRASQYIQGFLNWYQQKPGKAPRLLIYAASTLQDGVPSRFSGSGYGTDFTLTISSLQPEDFATYYCQNQYRGPWTFGQGTKVEIK
2. 163_02_A12 scFv (scFv, V domains shown, E. coli supernatant scFv; not shown: scFv linker, domain order and the pSANG10 tags (FLAG/His)) VH: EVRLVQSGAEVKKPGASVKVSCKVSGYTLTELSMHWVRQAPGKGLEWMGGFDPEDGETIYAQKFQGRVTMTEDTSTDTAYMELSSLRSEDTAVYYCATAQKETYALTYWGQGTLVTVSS VL: DIQMTQSPASLPTSVGDRVTITCRASQYIQGFLNWYQQKPGKAPRLLIYAASTLQDGVPSRFSGSGYGTDFTLTISSLQPEDFATYYCLHHYREPWTFGQGTKVEIK
3. 160_01_A4 scFv (scFv, V domains shown, not shown: small tags and cut ends, E. coli supernatant scFv) VH: EVRLVQSGAEVKKPGASVKVSCKVSGYTLTELSMHWVRQAPGKGLEWMGGFDPEDGETIYAQKFQGRVTMTEDTSTDTAYMELSSLRSEDTAVYYCATAQKETLGNAIWGQGTLVTVSS VL: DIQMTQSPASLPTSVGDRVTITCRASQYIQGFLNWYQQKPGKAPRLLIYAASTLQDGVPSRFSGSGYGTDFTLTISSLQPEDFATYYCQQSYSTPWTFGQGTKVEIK
4. 162_02_D3 scFv (scFv, V domains shown, not shown: small tags and cut ends, E. coli supernatant scFv) VH: EVRLVQSGAEVKKPGASVKVSCKVSGYTLTELSMHWVRQAPGKGLEWMGGFDPEDGETIYAQKFQGRVTMTEDTSTDTAYMELSSLRSEDTAVYYCATAQIHPLGLTYWGQGTLVTVSS VL: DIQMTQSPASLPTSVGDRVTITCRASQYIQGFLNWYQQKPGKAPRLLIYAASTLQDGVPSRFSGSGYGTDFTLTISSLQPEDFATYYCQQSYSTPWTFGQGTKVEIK

RESULT:
1: ≥ 83%; 2: ≥ 83%; 3: ≥ 90%; 4: ≥ 90%
